# System: T1, O7-bH
# T1 chain: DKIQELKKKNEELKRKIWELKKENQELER
# Experiment notes: two-hybrid library CCNG1;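 also: natural log of median RNA to DNA barcode read ratio; higher means stronger binding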
Experimental readout: interaction score

Guide cases for interaction score, answers given:
DKIQELKKEIEELERKNWELKKKNQELKR [O4-bH]	0.376
DEIQELEKKIEELKRKNWELKKKNQELKR [O12-bH]	-0.37
DENQELEKEIEELERENWELEKKIQELKR [O14-bH]	1.56
DKIQELKKKNEELKRKIWELKKENQELER [O7-bH]	-0.477

[a] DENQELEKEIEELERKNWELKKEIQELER [O5-bH]
[b] DKNQELKKKIEELKRKNWELKKEIQELER [O13-bH]
Request: Name the one with the greater interaction score value, either a or b as given. In your reply, give the label of the chosen option.
Response: a

[a] DEIQELEKENEELERKIWELKKENQELER [O15-bH]
[b] DKIQELKKKNEELKREIWELEKKNQELKR [O16-bH]
Request: Form: Entry with minimum interaction score (choose one): a / b Reply briefly: the label of your chosen item.
Response: b
